System: PANC-1
protocol.summary: Cytotoxicity against human PANC1 cells after 48 hrs by SRB assay
Format: functional
test.settings: PANC-1, 48 h
measurement.kind: log10 TGI (log10 of the value in nM)
The figures below represent log10 of TGI, where TGI is stated in nM.

A selection of reference data follows.
entry.smiles	test.result
C/C=C1\NC(=O)[C@H](Cc2ccccc2)NC(=O)[C@H](C(C)C)NC(=O)[C@@H]([C@H](C)CC)NC(=O)[C@H](NC(=O)[C@H](NC(=O)[C@H](CCCN)NC(=O)[C@H]2CCCN2C(=O)[C@H](NC(=O)[C@@H](NC(=O)[C@@H](NC(=O)[C@H](NC(=O)CCCC(C)C)C(C)C)[C@@H](C)O)C(C)C)C(C)C)[C@H](C)CC)[C@H](C)OC(=O)[C@H](C(C)C)NC1=O	3.70
C/C=C1\NC(=O)[C@H](Cc2ccccc2)NC(=O)[C@@H](C(C)C)NC(=O)[C@@H]([C@H](C)CC)NC(=O)[C@H](NC(=O)[C@H](NC(=O)[C@H](CCCN)NC(=O)[C@H]2CCCN2C(=O)[C@H](NC(=O)[C@@H](NC(=O)[C@H](CC(C)C)NC(=O)[C@H](NC(=O)CCCC(C)C)C(C)C)C(C)C)C(C)C)[C@H](C)CC)[C@H](C)OC(=O)[C@H](C(C)C)NC1=O	3.11
C/C=C1\NC(=O)[C@H](Cc2ccccc2)NC(=O)[C@@H](C(C)C)NC(=O)[C@@H]([C@H](C)CC)NC(=O)[C@H](NC(=O)[C@H](NC(=O)[C@H](CCCN)NC(=O)[C@H]2CCCN2C(=O)[C@H](NC(=O)[C@@H](NC(=O)[C@@H](NC(=O)[C@H](NC(=O)C(F)(F)C(F)(F)C(F)(F)C(F)(F)C(F)(F)C(F)(F)F)C(C)C)[C@@H](C)O)C(C)C)C(C)C)[C@H](C)CC)[C@H](C)OC(=O)[C@H](C(C)C)NC1=O	3.54
C/C=C1\NC(=O)[C@H](Cc2ccccc2)NC(=O)[C@@H](C(C)C)NC(=O)[C@@H]([C@H](C)CC)NC(=O)[C@H](NC(=O)[C@H](NC(=O)[C@H](CCCN)NC(=O)[C@H]2CCCN2C(=O)[C@H](NC(=O)[C@H](NC(=O)[C@@H](NC(=O)[C@H](NC(=O)CCCC(C)C)C(C)C)[C@@H](C)O)C(C)C)C(C)C)[C@H](C)CC)[C@H](C)OC(=O)[C@H](C(C)C)NC1=O	3.69
C/C=C1\NC(=O)[C@H](Cc2ccccc2)NC(=O)[C@@H](C(C)C)NC(=O)[C@@H]([C@H](C)CC)NC(=O)[C@H](NC(=O)[C@H](NC(=O)[C@H](CCCNC(=O)C[C@](OC)(c2ccccc2)C(F)(F)F)NC(=O)[C@H]2CCCN2C(=O)[C@H](NC(=O)[C@@H](NC(=O)[C@@H](NC(=O)[C@H](NC(=O)CCCC(C)C)C(C)C)[C@@H](C)O)C(C)C)C(C)C)[C@H](C)CC)[C@H](C)OC(=O)[C@H](C(C)C)NC1=O	3.19

Request: For the molecule shown here, C/C=C1\NC(=O)[C@H](Cc2ccccc2)NC(=O)[C@@H](C(C)C)NC(=O)[C@@H]([C@H](C)CC)NC(=O)[C@H](NC(=O)[C@H](NC(=O)[C@H](CCCN)NC(=O)[C@H]2CCCN2C(=O)[C@H](NC(=O)[C@@H](NC(=O)[C@H](Cc2ccccc2)NC(=O)[C@H](NC(=O)CCCC(C)C)C(C)C)C(C)C)C(C)C)[C@H](C)CC)[C@H](C)OC(=O)[C@H](C(C)C)NC1=O , give the reported log10 TGI.
Result: 2.48

Request: For the molecule shown here, C/C=C1\NC(=O)[C@H](Cc2ccccc2)NC(=O)[C@@H](C(C)C)NC(=O)[C@@H]([C@H](C)CC)NC(=O)[C@H](NC(=O)[C@H](NC(=O)[C@H](CCCN)NC(=O)[C@H]2CCCN2C(=O)[C@H](NC(=O)[C@@H](NC(=O)[C@@H](NC(=O)[C@H](NC(=O)CC[C@@H](C)[C@H]2CC[C@H]3[C@@H]4CC[C@@H]5C[C@H](OC(=O)C(F)(F)F)CC[C@]5(C)[C@H]4CC[C@]23C)C(C)C)[C@@H](C)O)C(C)C)C(C)C)[C@H](C)CC)[C@H](C)OC(=O)[C@H](C(C)C)NC1=O , give the reported log10 TGI.
Result: 3.16

Request: For the molecule shown here, C/C=C1\NC(=O)[C@H](Cc2ccc(I)cc2)NC(=O)[C@@H](C(C)C)NC(=O)[C@@H]([C@H](C)CC)NC(=O)[C@H](NC(=O)[C@H](NC(=O)[C@H](CCCN)NC(=O)[C@H]2CCCN2C(=O)[C@H](NC(=O)[C@@H](NC(=O)[C@@H](NC(=O)[C@H](NC(=O)CC[C@@H](C)CC)C(C)C)[C@@H](C)O)C(C)C)C(C)C)[C@H](C)CC)[C@H](C)OC(=O)[C@H](C(C)C)NC1=O , give the reported log10 TGI.
Result: 3.11

Request: For the molecule shown here, C/C=C1\NC(=O)[C@H](Cc2ccccc2Cl)NC(=O)[C@@H](C(C)C)NC(=O)[C@@H]([C@H](C)CC)NC(=O)[C@H](NC(=O)[C@H](NC(=O)[C@H](CCCN)NC(=O)[C@H]2CCCN2C(=O)[C@H](NC(=O)[C@@H](NC(=O)[C@@H](NC(=O)[C@H](NC(=O)CCCC(C)C)C(C)C)[C@@H](C)O)C(C)C)C(C)C)[C@H](C)CC)[C@H](C)OC(=O)[C@H](C(C)C)NC1=O , give the reported log10 TGI.
Result: 3.23

Request: For the molecule shown here, C/C=C1\NC(=O)[C@H](Cc2ccccc2)NC(=O)[C@@H](C(C)C)NC(=O)[C@@H]([C@H](C)CC)NC(=O)[C@H](NC(=O)[C@H](NC(=O)[C@H](CCCN)NC(=O)[C@H]2CCCN2C(=O)[C@H](NC(=O)[C@@H](NC(=O)[C@@H](NC(=O)[C@H](NC(=O)CC[C@@H](C)CC)C(C)C)[C@@H](C)OC(=O)C(F)(F)F)C(C)C)C(C)C)[C@H](C)CC)[C@H](C)OC(=O)[C@H](C(C)C)NC1=O , give the reported log10 TGI.
Result: 3.22
